Items are presented alongside their recorded IC50.
Target: PI3Kα (Homo sapiens, UniProt P42336)
Sequence (P42336 whole entry, one chain of several): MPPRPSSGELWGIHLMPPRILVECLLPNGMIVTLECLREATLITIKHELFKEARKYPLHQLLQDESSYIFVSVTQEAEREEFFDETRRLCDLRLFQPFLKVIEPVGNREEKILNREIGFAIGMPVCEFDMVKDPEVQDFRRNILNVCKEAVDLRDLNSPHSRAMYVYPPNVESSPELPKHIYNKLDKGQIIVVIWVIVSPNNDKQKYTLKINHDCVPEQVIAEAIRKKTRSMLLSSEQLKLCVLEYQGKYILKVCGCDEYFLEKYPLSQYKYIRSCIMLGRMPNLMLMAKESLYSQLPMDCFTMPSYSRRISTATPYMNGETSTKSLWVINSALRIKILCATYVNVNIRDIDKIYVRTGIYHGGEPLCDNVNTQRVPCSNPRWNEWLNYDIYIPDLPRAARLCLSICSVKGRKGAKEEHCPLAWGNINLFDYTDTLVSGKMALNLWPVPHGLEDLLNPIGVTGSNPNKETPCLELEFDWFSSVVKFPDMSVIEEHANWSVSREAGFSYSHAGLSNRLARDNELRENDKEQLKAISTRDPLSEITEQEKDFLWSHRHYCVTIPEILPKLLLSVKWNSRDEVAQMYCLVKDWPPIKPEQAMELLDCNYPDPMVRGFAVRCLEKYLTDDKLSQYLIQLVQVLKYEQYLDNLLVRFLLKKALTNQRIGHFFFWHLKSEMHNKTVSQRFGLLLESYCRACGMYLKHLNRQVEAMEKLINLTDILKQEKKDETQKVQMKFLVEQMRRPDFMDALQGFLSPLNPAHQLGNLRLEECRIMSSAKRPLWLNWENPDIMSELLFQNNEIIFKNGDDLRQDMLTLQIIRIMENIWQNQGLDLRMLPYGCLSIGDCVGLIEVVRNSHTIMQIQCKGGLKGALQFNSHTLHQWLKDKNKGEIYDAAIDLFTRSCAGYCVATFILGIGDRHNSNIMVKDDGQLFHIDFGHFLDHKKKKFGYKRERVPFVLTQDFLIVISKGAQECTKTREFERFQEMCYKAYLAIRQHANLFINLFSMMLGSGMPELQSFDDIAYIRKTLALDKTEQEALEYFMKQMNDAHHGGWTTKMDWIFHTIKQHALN
Assay: In vitro determination of the PI3K enzyme inhibitory activity in the cell free assay (ADP-Glo Kinase Assay), PI3Kα
Conditions: ATP 50 μM, read-out: PI3K alpha inhibition
quantity-measured: IC50

INSERT INTO results (compound, quantity_measured, observed_result) VALUES
  ('CC(c1cc2ccccn2c1-c1ccc(CN2CCOCC2)s1)n1nc(-c2cc(O)cc(F)c2)c2c(N)ncnc21 (stereo not shown)', 'IC50', '0.01 to 1 µM'),
  ('CC(Nc1ncnc(N)c1CN1CCOCC1)c1cc2ccccn2c1-c1ccccn1 (stereo not shown)', 'IC50', '> 1 µM'),
  ('CC(Nc1ncnc(N)c1C#N)c1cc2ccccn2c1C#CCO (stereo not shown)', 'IC50', '> 1 µM'),
  ('CC(Nc1ncnc(N)c1C#N)c1cc2ccccn2c1C1=CCNCC1 (stereo not shown)', 'IC50', '> 1 µM'),
  ('CC(c1cc2ccccn2c1CN1CCC2(CCN(C)CC2)CC1)n1nc(-c2cc(O)cc(F)c2)c2c(N)ncnc21 (stereo not shown)', 'IC50', '0.01 to 1 µM'),
  ('CC(c1cc2ccccn2c1-c1ccn(CCN(C)C)n1)n1nc(-c2cc(O)cc(F)c2)c2c(N)ncnc21 (stereo not shown)', 'IC50', '0.01 to 1 µM'),
  ('CC(c1cc2ccccn2c1-c1ccc(OCCN(C)C)nn1)n1nc(-c2cc(O)cc(F)c2)c2c(N)ncnc21 (stereo not shown)', 'IC50', '0.01 to 1 µM'),
  ('CC(c1cc2ccccn2c1-c1ccc(CN2CCN(C)CC2)cn1)n1nc(-c2cc(O)cc(F)c2)c2c(N)ncnc21 (stereo not shown)', 'IC50', '> 1 µM'),
  ('CC(c1cc2ccccn2c1-c1ccccn1)n1nc(-c2cnc(N)s2)c2c(N)ncnc21 (stereo not shown)', 'IC50', '> 1 µM'),
  ('Nc1ncnc2c1ncn2Cc1cc2ccccn2c1-c1ccccn1', 'IC50', '> 1 µM'),
  ('CC(c1cc2ccccn2c1-c1cccc(CN(C)C)c1)n1nc(-c2cc(O)cc(F)c2)c2c(N)ncnc21 (racemic)', 'IC50', '0.01 to 1 µM'),
  ('CC(c1cc2ccccn2c1-c1ccc(OCCN2CCN(C)CC2)nn1)n1nc(-c2cc(O)cc(F)c2)c2c(N)ncnc21 (stereo not shown)', 'IC50', '> 1 µM'),
  ('CC(c1cc2ccccn2c1-c1ccccn1)n1nc(-c2cncc(O)c2)c2c(N)ncnc21 (stereo not shown)', 'IC50', '> 1 µM'),
  ('Nc1ncnc2c1ncn2Cc1cn2ccccc2c1-c1cccc(F)c1', 'IC50', '> 1 µM'),
  ('Nc1ncn(Cc2cc3ccccn3c2-c2cccc(F)c2)c2ncnc1-2', 'IC50', '> 1 µM'),
  ('Cc1cccc2cc(C(C)Nc3ncnc(N)c3C#N)c(-c3ccccn3)n12 (stereo not shown)', 'IC50', '> 1 µM');

====

Recorded measurements of IC50, one per entry
Target: PI3Kδ (Homo sapiens)
Sequence (O00329 whole entry): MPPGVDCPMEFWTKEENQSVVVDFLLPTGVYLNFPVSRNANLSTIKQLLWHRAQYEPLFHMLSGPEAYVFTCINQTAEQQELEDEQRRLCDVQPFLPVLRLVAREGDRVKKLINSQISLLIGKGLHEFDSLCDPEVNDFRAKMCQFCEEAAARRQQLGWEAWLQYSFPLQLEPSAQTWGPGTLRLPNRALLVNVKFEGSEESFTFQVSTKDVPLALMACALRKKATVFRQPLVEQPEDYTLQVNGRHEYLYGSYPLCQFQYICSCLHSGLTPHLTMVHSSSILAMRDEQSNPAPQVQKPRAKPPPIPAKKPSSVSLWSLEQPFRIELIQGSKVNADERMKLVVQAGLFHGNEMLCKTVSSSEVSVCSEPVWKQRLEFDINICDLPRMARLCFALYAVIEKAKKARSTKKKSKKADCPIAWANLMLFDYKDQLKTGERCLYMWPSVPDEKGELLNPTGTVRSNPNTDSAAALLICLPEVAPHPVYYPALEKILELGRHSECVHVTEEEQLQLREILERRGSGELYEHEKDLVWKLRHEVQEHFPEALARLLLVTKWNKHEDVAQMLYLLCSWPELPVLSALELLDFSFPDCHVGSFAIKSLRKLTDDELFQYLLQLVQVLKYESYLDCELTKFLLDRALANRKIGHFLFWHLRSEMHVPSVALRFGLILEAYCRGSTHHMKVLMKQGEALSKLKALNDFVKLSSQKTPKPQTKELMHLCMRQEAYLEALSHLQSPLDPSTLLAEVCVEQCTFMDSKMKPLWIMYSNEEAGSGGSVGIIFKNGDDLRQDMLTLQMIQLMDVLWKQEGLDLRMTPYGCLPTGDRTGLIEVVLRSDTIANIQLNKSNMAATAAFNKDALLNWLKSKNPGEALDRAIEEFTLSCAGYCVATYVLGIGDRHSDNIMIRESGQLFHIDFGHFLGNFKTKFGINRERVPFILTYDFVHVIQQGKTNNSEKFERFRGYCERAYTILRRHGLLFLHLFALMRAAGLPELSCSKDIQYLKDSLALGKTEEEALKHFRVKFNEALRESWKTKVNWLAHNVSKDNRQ
Sequence (P27986 whole entry partner): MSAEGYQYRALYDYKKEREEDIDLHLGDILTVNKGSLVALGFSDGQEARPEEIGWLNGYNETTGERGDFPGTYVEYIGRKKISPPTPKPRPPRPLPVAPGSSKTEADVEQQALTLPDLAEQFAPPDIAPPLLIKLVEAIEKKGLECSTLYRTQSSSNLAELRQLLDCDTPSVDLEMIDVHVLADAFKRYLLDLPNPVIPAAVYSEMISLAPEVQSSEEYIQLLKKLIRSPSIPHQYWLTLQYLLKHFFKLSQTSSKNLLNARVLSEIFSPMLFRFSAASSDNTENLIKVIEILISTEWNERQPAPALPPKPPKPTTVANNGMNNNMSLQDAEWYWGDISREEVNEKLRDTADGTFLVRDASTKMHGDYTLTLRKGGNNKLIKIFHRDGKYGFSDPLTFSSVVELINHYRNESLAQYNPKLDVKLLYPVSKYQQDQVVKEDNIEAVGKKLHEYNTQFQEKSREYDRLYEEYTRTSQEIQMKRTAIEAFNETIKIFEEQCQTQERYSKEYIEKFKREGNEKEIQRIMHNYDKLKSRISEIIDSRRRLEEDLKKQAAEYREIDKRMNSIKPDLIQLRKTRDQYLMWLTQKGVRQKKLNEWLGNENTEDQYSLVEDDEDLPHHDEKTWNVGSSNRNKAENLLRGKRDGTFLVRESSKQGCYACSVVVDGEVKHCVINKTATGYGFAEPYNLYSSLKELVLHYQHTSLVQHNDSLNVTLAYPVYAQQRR
Experiment: In vitro determination of the PI3K enzyme inhibitory activity in the cell free assay (ADP-Glo Kinase Assay), PI3Kδ
Settings: ATP 80 μM, read-out: PI3K delta inhibition
quantity-measured: IC50

INSERT INTO assay_data (molecule, observed_result) VALUES
  ('C[C@H](c1cc2ccccn2c1-c1ccc(CN2CCN(C)CC2)cn1)n1nc(-c2cc(O)cc(F)c2)c2c(N)ncnc21 (single isomer, unassigned) [Example 114a]', '< 10 nM'),
  ('CC(Nc1ncnc(N)c1C#N)c1cc2ccccn2c1-c1ccccc1 (stereo not shown)', '10 to 1000 nM'),
  ('Nc1ncnc2c1ncn2Cc1cc2ccccn2c1-c1ccccc1', '> 1000 nM'),
  ('CC(c1cc2ccccn2c1C#CCN(C)C)n1nc(-c2cc(O)cc(F)c2)c2c(N)ncnc21 (stereo not shown)', '10 to 1000 nM'),
  ('Cc1cccn2c(-c3ccccn3)c(C(C)Nc3ncnc(N)c3C#N)cc12 (stereo not shown)', '10 to 1000 nM'),
  ('CC(c1cc2cccnn2c1-c1ccccn1)n1nc(-c2cc(O)cc(F)c2)c2c(N)ncnc21 (stereo not shown)', '< 10 nM'),
  ('C[C@H](c1cc2ccccn2c1-c1ccc(CN2CCN(C)CC2)cn1)n1nc(-c2cc(O)cc(F)c2)c2c(N)ncnc21 (single isomer, unassigned) [Example 114b]', '< 10 nM'),
  ('CC(c1cc2ccccn2c1-c1ccc(CN2CCOCC2)cn1)n1nc(-c2cc(O)cc(F)c2)c2c(N)ncnc21 (stereo not shown)', '< 10 nM'),
  ('CC(c1cc2ccccn2c1-c1ccccn1)n1nc(-c2cccc(O)c2)c2c(N)ncnc21 (stereo not shown)', '10 to 1000 nM'),
  ('CC(c1cc2ccccn2c1-c1cccc(CN(C)C)c1)n1nc(-c2cc(O)cc(F)c2)c2c(N)ncnc21 (racemic)', '10 to 1000 nM'),
  ('Nc1ncnc2c1c(-c1cc(O)cc(F)c1)nn2Cc1cc2ccccn2c1-c1cccnc1', '10 to 1000 nM'),
  ('Cc1ccccc1-c1c(CNc2ncnc(N)c2C#N)cc2ccccn12', '10 to 1000 nM'),
  ('CC(c1cc2ccccn2c1-c1ccc(C(=O)N2CCOCC2)cn1)n1nc(-c2cc(O)cc(F)c2)c2c(N)ncnc21 (stereo not shown)', '< 10 nM'),
  ('CC(c1cc2ccccn2c1-c1ccc(=O)n(CCN2CCOCC2)c1)n1nc(-c2cc(O)cc(F)c2)c2c(N)ncnc21 (stereo not shown)', '< 10 nM'),
  ('Nc1ncnc2c1ncn2Cc1cc2ccccn2c1', '> 1000 nM'),
  ('Cc1ccccc1-c1c(Cn2cnc(N)c3ncnc2-3)cc2ccccn12', '> 1000 nM');

====

Molecular target: PI3Kβ (Homo sapiens, UniProt P42338)
Sequence (P42338 whole entry): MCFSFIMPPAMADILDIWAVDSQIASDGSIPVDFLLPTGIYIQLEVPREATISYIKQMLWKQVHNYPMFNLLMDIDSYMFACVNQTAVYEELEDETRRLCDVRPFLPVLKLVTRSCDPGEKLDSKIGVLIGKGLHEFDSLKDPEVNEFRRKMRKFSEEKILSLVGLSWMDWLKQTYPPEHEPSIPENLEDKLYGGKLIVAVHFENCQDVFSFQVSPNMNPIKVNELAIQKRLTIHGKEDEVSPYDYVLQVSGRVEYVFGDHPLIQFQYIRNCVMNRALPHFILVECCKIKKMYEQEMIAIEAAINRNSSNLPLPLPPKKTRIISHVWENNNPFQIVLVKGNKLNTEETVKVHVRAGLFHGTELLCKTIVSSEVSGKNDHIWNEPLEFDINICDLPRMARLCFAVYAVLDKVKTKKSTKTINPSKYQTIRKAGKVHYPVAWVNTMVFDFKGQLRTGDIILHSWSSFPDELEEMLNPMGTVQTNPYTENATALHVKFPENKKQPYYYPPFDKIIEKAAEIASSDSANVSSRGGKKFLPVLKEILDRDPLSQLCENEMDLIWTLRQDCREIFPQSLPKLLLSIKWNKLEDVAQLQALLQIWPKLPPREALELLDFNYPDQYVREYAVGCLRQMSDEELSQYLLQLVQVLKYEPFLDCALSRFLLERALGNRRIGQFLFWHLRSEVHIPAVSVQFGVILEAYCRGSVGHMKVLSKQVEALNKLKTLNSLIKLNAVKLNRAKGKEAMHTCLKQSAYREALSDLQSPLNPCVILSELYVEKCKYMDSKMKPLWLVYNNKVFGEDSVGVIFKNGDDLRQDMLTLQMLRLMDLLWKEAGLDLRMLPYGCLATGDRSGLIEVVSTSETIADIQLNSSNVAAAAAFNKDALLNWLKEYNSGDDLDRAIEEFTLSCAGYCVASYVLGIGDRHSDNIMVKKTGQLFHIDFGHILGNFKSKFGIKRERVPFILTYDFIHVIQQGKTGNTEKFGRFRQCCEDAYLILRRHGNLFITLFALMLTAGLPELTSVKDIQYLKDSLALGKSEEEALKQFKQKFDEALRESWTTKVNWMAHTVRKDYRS
Sequence (P27986 whole entry partner): as the sequence (P27986 whole entry partner) above
Test: In vitro determination of the PI3K enzyme inhibitory activity in the cell free assay (ADP-Glo Kinase Assay), PI3Kβ
Settings: ATP 100 μM, read-out: PI3K beta inhibition
pIC50: −log10 of the molar value.
quantity-measured: pIC50

INSERT INTO results (compound, observed_result) VALUES
  ('CC(=O)Nc1cccc(-c2nn(C(C)c3cc4ccccn4c3-c3ccccn3)c3ncnc(N)c23)c1 (stereo not shown) [Example 63]', '< 6.00'),
  ('C[C@H](c1cc2ccccn2c1-c1ccc(CN(CCO)CCO)cn1)n1nc(-c2cc(O)cc(F)c2)c2c(N)ncnc21 (single isomer, unassigned) [Example 117a]', '6.00 to 8.00'),
  ('Nc1ncn(Cc2cc3ccccn3c2-c2ccccc2)c2ncnc1-2 [Example 2]', '< 6.00'),
  ('Fc1cccc(-c2c(CNc3ncnc4[nH]cnc34)cn3ccccc23)c1 [Example 18]', '< 6.00'),
  ('Nc1ncnc2c1c(-c1cc(O)cc(F)c1)nn2Cc1cc2ccccn2c1-c1ccccn1 [Example 97]', '6.00 to 8.00'),
  ('CC(c1cc2ccccn2c1-c1ccn(CCN2CCOCC2)n1)n1nc(-c2cc(O)cc(F)c2)c2c(N)ncnc21 (stereo not shown) [Example 150]', '6.00 to 8.00'),
  ('CC(c1cc2ccccn2c1-c1cccc(CN2CCOCC2)n1)n1nc(-c2cc(O)cc(F)c2)c2c(N)ncnc21 (stereo not shown) [Example 110]', '6.00 to 8.00');

====

Target: PI3Kβ (Homo sapiens)
Experiment: In vitro determination of the PI3K enzyme inhibitory activity in the cell free assay (ADP-Glo Kinase Assay), PI3Kβ
Conditions: ATP 100 μM, read-out: PI3K beta inhibition
Protocol: In vitro Determination of the PI3K Enzyme Inhibitory Activity in the Cell Free Assay Human recombinant proteins PI3Kα, PI3Kβ, PI3Kγ and PI3Kδ were purchased from Millipore Ltd (Billerica, Mass.). Compounds were dissolved at 0.5 mM in DMSO and were tested at different concentrations for their activity against PI3Ks using the ADP-Glo™ Kinase Assay (Promega, Madison Wis.) according to the manufacturer's instructions. […]
pIC50: −log10 of the molar value.
quantity-measured: pIC50

INSERT INTO results (molecule, quantity_measured, observed_result) VALUES
  ('CC(Nc1ncnc(N)c1Br)c1cc2ccccn2c1-c1ccccn1 (centres unmarked)', 'pIC50', '< 6.00'),
  ('CC(c1cc2ccccn2c1-c1cc(CN(C)C)ccn1)n1nc(-c2cc(O)cc(F)c2)c2c(N)ncnc21 (centres unmarked)', 'pIC50', '6.00 to 8.00'),
  ('Nc1ncnc2c1c(-c1cc(O)cc(F)c1)nn2Cc1cc2ccccn2c1-c1ccncc1', 'pIC50', '6.00 to 8.00'),
  ('C[C@H](c1c(C#N)c2ccccn2c1-c1cccc(CN(C)C)c1)n1nc(-c2cc(O)cc(F)c2)c2c(N)ncnc21 (single isomer, unassigned) [Example 127a]', 'pIC50', '6.00 to 8.00'),
  ('N#Cc1c(N)ncnc1NCc1cc2ccccn2c1', 'pIC50', '< 6.00');

The values you see were collected from patent US9527869B2.
